Just for reference, the SangsterLogP compilation is where these values come from.

assay: method code SF-HPLC, from DOI: 10.1081/jlc-100101463; conditions: pH 12.0
metric: logD
Keep it simple and answer with nothing but the number.

Worked examples follow.
NC1=NCC(CN2CCC(c3ccccc3)CC2)O1 (stereo not drawn) :: 1.96
NC1=NCC(CN2CC=CCC2)O1 (stereo not drawn) :: 0.19

Query: Reported logD, molecule CC(=O)c1cccc(OCC2CN=C(N)O2)c1 (stereo not drawn) : ____
Result: 1.31

Query: Here is the next molecule: NC1=NCC(CN2CCOCC2)O1 (stereo not drawn)
Result: -0.22

Query: Here is the next molecule: CC(C)(C)c1ccc(OCC2CN=C(N)O2)cc1 (stereo not drawn)
Result: 2.87

Query: Here is the next molecule: NC1=NCC(CN2CCC(Cc3ccccc3)CC2)O1 (stereo not drawn)
Result: 2.38

Query: Here is the next molecule: CC1CCCC(C)N1CC1CN=C(N)O1 (stereo not drawn)
Result: 0.94

Query: Here is the next molecule: CC1CCCCN1CC1CN=C(N)O1 (stereo not drawn)
Result: 0.73

Query: Here is the next molecule: NC1=NCC(CN2CCC(C(=O)c3ccccc3)CC2)O1 (stereo not drawn)
Result: 1.05

Query: Here is the next molecule: CC1CCN(CC2CN=C(N)O2)CC1 (stereo not drawn)
Result: 0.91
